system: BDF1 mice, P388 leukemia ip, median survival T/C; assay: NCI In Vivo Anticancer Drug Screen. Data for tumor model P388 Leukemia (intraperitoneal) in B6D2F1 (BDF1) mice; settings: endpoint: median survival time; dose: 200.0 mg/kg/injection; schedule: Q01DX005 (ip); vehicle: saline with Tween-80; higher = longer survival
Inconclusive results and toxic doses are left out.
Field: T/C. Provide a value for each of the molecules that follow.

Input line: Provide only the value of recorded T/C for `O=C1c2ccccc2C(=O)N1CNc1ncccn1`
Output line: 105 % of control

Input line: Supply recorded T/C for `O=C1CN(Cc2ccccc2)CC(=O)N2CCCN12` here.
Output line: 92 % of control

Input line: Output T/C of CC(C)(C)C1CCC(C#N)(NNc2ccccc2)CC1 (stereo not given)
Output line: 89 % of control

Input line: # return recorded T/C for input `CN(C)Cc1ccc(-c2cc3onc(-c4ccccc4)c3c(=O)n2C)cc1`
Output line: 97 % of control

Input line: State its T/C for this molecule: `COc1ccc(-c2nnc(C)nc2-c2ccc(OC)cc2)cc1`
Output line: 100 % of control

Input line: Supply recorded T/C for CN1C(=O)c2ccccc2CC12c1ccccc1C(=O)N2C (stereo not given) here.
Output line: 86 % of control

Input line: For `CC1(C)COC(c2ccc(CC(Cc3ccc(C4(C(C)(C)C)OCC(C)(C)CO4)cc3)C(=O)O)cc2)(C(C)(C)C)OC1` , write its T/C.
Output line: 96 % of control

Input line: Output T/C of `C=C/C=C/CCC(=O)C=[N+]=[N-]`
Output line: 101 % of control

Input line: Read off the recorded T/C for `O=C1CN(c2ccccc2)CC(=O)N2CCCN12`
Output line: 88 % of control

Input line: Input `O=C(CCC[N+](=O)[O-])c1ccccc1` , output reported T/C.
Output line: 99 % of control

----------
tested on: BDF1 mice, P388 leukemia ip, median survival T/C; assay: NCI In Vivo Anticancer Drug Screen. Data for tumor model P388 Leukemia (intraperitoneal) in B6D2F1 (BDF1) mice; conditions: endpoint: median survival time; dose: 400.0 mg/kg/injection; schedule: Q04DX002 (ip); vehicle: saline with Tween-80; higher = longer survival
Toxic doses and inconclusive results are not listed.
For each entry below, report its T/C value.

Input line: Provide measured T/C value, entry: CCC(C)OP1(=S)OCC(C)O1 (configuration not stated)
Output line: 118 % of control

Input line: Consider the molecule `O=C(O)C(Br)(C(=O)O)c1ccccc1` and give its recorded T/C.
Output line: 93 % of control

Input line: Supply T/C value. Item: `OC(Cc1cnc2ccccc2c1)(c1ccccc1)c1ccccc1`
Output line: 98 % of control

Input line: Give recorded T/C. COC1/C=C/OC2(C)Oc3c(C)c(O)c4c(O)c5c(c(O)c4c3C2=O)CN(C)C(=N5)/C(C)=C\C=C\C(C)C(O)C(C)C(O)C(C)C(OC(C)=O)C1C (configuration not stated)
Output line: 116 % of control

Input line: Identify T/C associated with the molecule O=S1(=O)C(Cc2ccccc2)CCCN1c1ccccc1 (configuration not stated)
Output line: 102 % of control

Input line: Tell us which T/C value is on record for `N#Cc1nnc2cc[nH]n2c1=O`
Output line: 109 % of control

Input line: Let me know recorded T/C for `Cc1cnn(O)c(=NCCCl)n1` , thanks.
Output line: 99 % of control

----------
system: BDF1 mice, P388 leukemia ip, median survival T/C; assay: NCI In Vivo Anticancer Drug Screen. Data for tumor model P388 Leukemia (intraperitoneal) in B6D2F1 (BDF1) mice; conditions: endpoint: median survival time; dose: 400.0 mg/kg/injection; schedule: Q01DX001 (ip); vehicle: saline with Tween-80; higher = longer survival
Toxic doses and inconclusive results are not listed.
metric.name: T/C

Input line: Tell me its T/C given `O=C1N/C(=N\O)S/C1=C/c1ccc2c(c1)OCO2` as the entry.
Output line: 105 % of control

Input line: Supply measured T/C of Cc1ccc(S(=O)(=O)N2CC(O)CC2C(=O)O)cc1 (stereo not drawn) in your reply.
Output line: 113 % of control

Input line: In one line, give reported T/C of the entry CC(C)CNC(c1ccc2c(c1)OCO2)C(O)c1ccc2c(c1)OCO2 (stereo not drawn) .
Output line: 108 % of control

Input line: Given the compound `O=Cc1c2c(c(C=O)c3c1OCO3)OCO2` , write its reported T/C.
Output line: 90 % of control

Input line: Check the records and state T/C for `Nc1cccc(/C=C/c2ccnc3ccccc23)c1`
Output line: 102 % of control

Input line: Answer with the recorded T/C of `Cc1cc(=O)[nH]c2cc(Br)ccc12` only.
Output line: 90 % of control

Input line: Give the value of T/C reported for the following: `Cc1nnc2c(=S)[nH]ccn12`
Output line: 100 % of control

Input line: State its T/C: `NC(=O)c1nnc2cccc(Cl)n12`
Output line: 96 % of control

Input line: Please indicate T/C recorded for `O=c1[nH]ccn2cnnc12`
Output line: 104 % of control

Input line: Please look at this compound and report its T/C: `O=CNc1ccccc1Cl`
Output line: 91 % of control

Input line: Specify reported T/C for the compound shown: `CC(C)(C)c1ccc(OS(=O)(=O)c2ccccc2[N+](=O)[O-])cc1`
Output line: 113 % of control

Input line: Report T/C for `c1coc(NC2CCCCC2)n1`
Output line: 95 % of control

Input line: For the compound `COc1ccc(NC(=O)Nc2ccccc2F)cc1` , report T/C.
Output line: 95 % of control

----------
Tested on: BDF1 mice, P388 leukemia ip, median survival T/C
Test: NCI In Vivo Anticancer Drug Screen. Data for tumor model P388 Leukemia (intraperitoneal) in B6D2F1 (BDF1) mice
Conditions: endpoint: median survival time; dose: 100.0 mg/kg/injection; schedule: Q04DX003 (ip); vehicle: saline; higher = longer survival
Protocol: The antitumor activity of compounds was measured in mice bearing transplantable tumors. Survival or tumor size were measured and the results are expressed as the measurement made in the treated group (T) divided by the measurement made in the vehicle treated control group (C). The tumor model used in this assay is P388 Leukemia (intraperitoneal) in B6D2F1 (BDF1) mice
Inconclusive results and toxic doses are left out.
Record form. Attribute: T/C. Fill in for each entry.

Input line: Hello, please tell me recorded T/C for this one: `CC1(C)C(=O)C(C)(C)C1=NO`
Output line: 95 % of control

Input line: Return reported T/C. Input compound: `O=C(N[C@@H](c1ccccc1)[C@H](N=Cc1ccccc1)c1ccccc1)c1ccccc1`
Output line: 92 % of control

Input line: Let me know recorded T/C for `COc1ccc(C=Nc2ccc(OC(C)=O)cc2)cc1` , thanks.
Output line: 104 % of control

Input line: Please list T/C recorded for the compound `CCCCOB(OCCCC)Oc1c(C(C)(C)C)cccc1C(C)(C)C`
Output line: 100 % of control

Input line: Please report the measured T/C for O=[P+](O)C(O)c1ccccc1 (centres undefined)
Output line: 100 % of control

Input line: In one line, give reported T/C of the entry `NNC(=O)C1CC1` .
Output line: 104 % of control

Input line: Please indicate T/C recorded for `O=C(CSCSCC(=O)Nc1ccc(C2=NCCN2)cc1)Nc1ccc(C2=NCCN2)cc1`
Output line: 114 % of control

Input line: Supply T/C value. Item: CC1(C)OC(COCCOCCO)C(COCCOCCO)O1 (centres undefined)
Output line: 96 % of control

Input line: Give the measured T/C for `c1ccncc1`
Output line: 96 % of control

----------
system: BDF1 mice, P388 leukemia ip, median survival T/C; assay: NCI In Vivo Anticancer Drug Screen. Data for tumor model P388 Leukemia (intraperitoneal) in B6D2F1 (BDF1) mice; conditions: endpoint: median survival time; dose: 200.0 mg/kg/injection; schedule: Q01DX010 (ip); vehicle: saline; higher = longer survival
Toxic doses and inconclusive results are not listed.
metric.name: T/C

Input line: Provide the reported T/C (system: BDF1 mice, P388 leukemia ip, median survival T/C) for `O=c1ccc2ccccc2o1`
Output line: 90 % of control

Input line: Param request: T/C | system BDF1 mice, P388 leukemia ip, median survival T/C | item O=C1CC(c2ccc(O)cc2)C2(O1)C(=O)OC(C(O)CO)C2O (centres undefined)
Output line: 105 % of control

Input line: Recall the reported T/C of `Cn1c(=O)c2[nH]cnc2n(C)c1=O` when tested on BDF1 mice, P388 leukemia ip, median survival T/C.
Output line: 104 % of control

Input line: Supply T/C measured with BDF1 mice, P388 leukemia ip, median survival T/C for `[Mg+2]` .
Output line: 100 % of control

----------
Exercise: for every item that follows, state its recorded T/C.
system: BDF1 mice, P388 leukemia ip, median survival T/C; test: NCI In Vivo Anticancer Drug Screen. Data for tumor model P388 Leukemia (intraperitoneal) in B6D2F1 (BDF1) mice; conditions: endpoint: median survival time; dose: 400.0 mg/kg/injection; schedule: Q01DX001 (ip); vehicle: Klucel (hydroxypropylcellulose) (HPC); higher = longer survival
Inconclusive results and toxic doses are left out.

Input line: Quote T/C with test system BDF1 mice, P388 leukemia ip, median survival T/C for `CCOc1nc(OCC)nc(-c2cccn2-c2ccccc2)n1`
Output line: 90 % of control

Input line: Lab note: BDF1 mice, P388 leukemia ip, median survival T/C assay, enter T/C for O=C1NC(=O)C(c2ccccc2Cl)N1 (centres undefined) here
Output line: 112 % of control

Input line: Fill: T/C (BDF1 mice, P388 leukemia ip, median survival T/C) for this compound `S=C1SCN(Cc2ccccc2)CN1Cc1ccccc1`
Output line: 100 % of control

Input line: Tell me its T/C on BDF1 mice, P388 leukemia ip, median survival T/C: `CC1=CC(C)(C)NC(=S)N1c1ccccc1`
Output line: 109 % of control

Input line: State the measured T/C (BDF1 mice, P388 leukemia ip, median survival T/C) of `OC1(O)COC(c2ccccc2)OC1`
Output line: 100 % of control

Input line: Fill: T/C (BDF1 mice, P388 leukemia ip, median survival T/C) for this compound O=[N+]([O-])c1ccc(F)c(CNc2ncnc3c2ncn3C2CCCCO2)c1 (centres undefined)
Output line: 105 % of control

Input line: Recall the reported T/C of `COC(=O)c1ccc(OCCOc2ccc(C(C)(C)CC(C)(C)C)cc2)c(N)c1` on BDF1 mice, P388 leukemia ip, median survival T/C and write it down.
Output line: 100 % of control

Input line: State T/C on BDF1 mice, P388 leukemia ip, median survival T/C. Entry: `Cc1ccc2ccccc2c1NCCC(=O)O`
Output line: 100 % of control

Input line: GET T/C | system: BDF1 mice, P388 leukemia ip, median survival T/C | item: O=C1OC(c2ccc([N+](=O)[O-])cc2)Sc2ccccc21 (centres undefined)
Output line: 100 % of control
